measured-target: PAK4 (human) (UniProt O96013)
Sequence (O96013 whole entry, looked up): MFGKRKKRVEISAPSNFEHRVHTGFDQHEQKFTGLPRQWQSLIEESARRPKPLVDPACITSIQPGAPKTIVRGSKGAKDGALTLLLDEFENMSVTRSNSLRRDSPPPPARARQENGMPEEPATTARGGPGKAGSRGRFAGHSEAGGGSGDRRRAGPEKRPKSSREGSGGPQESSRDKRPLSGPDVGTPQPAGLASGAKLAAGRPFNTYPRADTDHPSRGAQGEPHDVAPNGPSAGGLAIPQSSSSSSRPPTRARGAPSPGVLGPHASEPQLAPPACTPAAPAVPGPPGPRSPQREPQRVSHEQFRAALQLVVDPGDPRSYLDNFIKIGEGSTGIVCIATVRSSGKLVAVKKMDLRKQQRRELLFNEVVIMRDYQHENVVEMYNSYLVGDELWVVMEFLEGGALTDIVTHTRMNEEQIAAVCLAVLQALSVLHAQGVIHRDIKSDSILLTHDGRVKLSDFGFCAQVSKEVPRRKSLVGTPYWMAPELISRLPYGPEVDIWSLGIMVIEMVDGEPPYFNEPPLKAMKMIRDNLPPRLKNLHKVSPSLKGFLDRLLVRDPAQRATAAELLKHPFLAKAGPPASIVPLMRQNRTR
experiment-notes: Caliper, Mobility shift assay off-chip
condition-description: compound 0.2 µM
measurement-label: inhibition (%)
Provide the reading as a plain figure in %.

Record CCN(CC)CCNC(=O)c1c(C)[nH]c(/C=C2\C(=O)Nc3ccc(F)cc32)c1C , field inhibition: 16.2

Record Cc1ccc(Nc2nccc(N(C)c3ccc4c(C)n(C)nc4c3)n2)cc1S(N)(=O)=O , field inhibition: 8

Record COc1cc2c(Oc3ccc4[nH]c(C)cc4c3F)ncnc2cc1OCCCN1CCCC1 , field inhibition: 0

Record CNC(=O)c1cc(Oc2ccc(NC(=O)Nc3ccc(Cl)c(C(F)(F)F)c3)cc2)ccn1 , field inhibition: 4.4

* * *

Kindly state inhibition for each of the entries shown.
measured-target: MOS (human)
experiment-notes: ELISA
condition-description: compound 0.2 µM
Provide a numeric answer, followed by its unit.

Record CCN(CC)CCNC(=O)c1c(C)[nH]c(/C=C2\C(=O)Nc3ccc(F)cc32)c1C , field inhibition: 2.5%

Record CNC(=O)c1cc(Oc2ccc(NC(=O)Nc3ccc(Cl)c(C(F)(F)F)c3)cc2)ccn1 , field inhibition: 0.5%

Record Cc1ccc(Nc2nccc(N(C)c3ccc4c(C)n(C)nc4c3)n2)cc1S(N)(=O)=O , field inhibition: 5%

Record COc1cc2c(Oc3ccc4[nH]c(C)cc4c3F)ncnc2cc1OCCCN1CCCC1 , field inhibition: 3.7%

* * *

measured-target: SIK1 (human)
experiment-notes: Caliper, Mobility shift assay off-chip
condition-description: compound 0.02 µM
Kindly state inhibition for each of the entries shown.
Provide the reading as a plain figure in %.

Kindly note: SIK1 (human), CNC(=O)c1ccccc1Sc1ccc2c(/C=C/c3ccccn3)n[nH]c2c1 , inhibition value reported: -4.6

Kindly note: SIK1 (human), COc1cc2c(Oc3ccc4[nH]c(C)cc4c3F)ncnc2cc1OCCCN1CCCC1 , inhibition value reported: -3.3

Kindly note: SIK1 (human), Cc1ccc(Nc2nccc(N(C)c3ccc4c(C)n(C)nc4c3)n2)cc1S(N)(=O)=O , inhibition value reported: -3

Kindly note: SIK1 (human), CNC(=O)c1cc(Oc2ccc(NC(=O)Nc3ccc(Cl)c(C(F)(F)F)c3)cc2)ccn1 , inhibition value reported: -3.4

* * *

measured-target: IRAK4 (human) (UniProt Q9NWZ3)
Sequence (Q9NWZ3 whole entry, looked up): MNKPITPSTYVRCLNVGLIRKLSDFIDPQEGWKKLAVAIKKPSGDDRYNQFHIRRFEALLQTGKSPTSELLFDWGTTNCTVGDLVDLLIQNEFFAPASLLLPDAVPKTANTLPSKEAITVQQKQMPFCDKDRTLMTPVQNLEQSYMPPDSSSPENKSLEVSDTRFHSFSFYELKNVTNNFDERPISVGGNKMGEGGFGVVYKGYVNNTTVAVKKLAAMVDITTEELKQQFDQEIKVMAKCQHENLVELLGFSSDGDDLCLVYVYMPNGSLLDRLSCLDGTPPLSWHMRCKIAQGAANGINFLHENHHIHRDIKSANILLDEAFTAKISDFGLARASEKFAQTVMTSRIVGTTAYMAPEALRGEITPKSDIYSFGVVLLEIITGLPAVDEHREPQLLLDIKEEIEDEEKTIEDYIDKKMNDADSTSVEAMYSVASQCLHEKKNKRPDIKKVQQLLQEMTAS
experiment-notes: Caliper, Mobility shift assay off-chip
condition-description: compound 0.02 µM
measurement-label: inhibition

Kindly note: IRAK4 (human) (UniProt Q9NWZ3), CNC(=O)c1cc(Oc2ccc(NC(=O)Nc3ccc(Cl)c(C(F)(F)F)c3)cc2)ccn1 , inhibition value reported: -5.9%

Kindly note: IRAK4 (human) (UniProt Q9NWZ3), COc1cc2c(Oc3ccc4[nH]c(C)cc4c3F)ncnc2cc1OCCCN1CCCC1 , inhibition value reported: -5.6%

Kindly note: IRAK4 (human) (UniProt Q9NWZ3), Cc1ccc(Nc2nccc(N(C)c3ccc4c(C)n(C)nc4c3)n2)cc1S(N)(=O)=O , inhibition value reported: -4.3%

Kindly note: IRAK4 (human) (UniProt Q9NWZ3), CNC(=O)c1ccccc1Sc1ccc2c(/C=C/c3ccccn3)n[nH]c2c1 , inhibition value reported: -6.7%

* * *

measured-target: MKNK2 (human)
experiment-notes: Caliper, Mobility shift assay off-chip
condition-description: compound 0.02 µM
Kindly state inhibition for each of the entries shown.
Provide the reading as a plain figure in %.

Record CNC(=O)c1cc(Oc2ccc(NC(=O)Nc3ccc(Cl)c(C(F)(F)F)c3)cc2)ccn1 , field inhibition: 4.4

Record Cc1ccc(Nc2nccc(N(C)c3ccc4c(C)n(C)nc4c3)n2)cc1S(N)(=O)=O , field inhibition: 2.7

Record CNC(=O)c1ccccc1Sc1ccc2c(/C=C/c3ccccn3)n[nH]c2c1 , field inhibition: 1.4

Record COc1cc2c(Oc3ccc4[nH]c(C)cc4c3F)ncnc2cc1OCCCN1CCCC1 , field inhibition: -3.7
